Target: T1, glutathione S-transferase (GST) (UniProt P08515 1-218 = GST)
T1 construct: also called carrier protein GST
T1 sequence (P08515 whole entry): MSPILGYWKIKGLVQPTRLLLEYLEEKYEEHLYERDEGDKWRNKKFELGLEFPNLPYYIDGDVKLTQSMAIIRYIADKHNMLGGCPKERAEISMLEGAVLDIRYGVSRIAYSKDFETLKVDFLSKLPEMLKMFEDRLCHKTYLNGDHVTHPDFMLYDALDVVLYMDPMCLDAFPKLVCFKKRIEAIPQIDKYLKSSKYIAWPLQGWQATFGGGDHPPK
Experiment: ELISA, Ab 0.025 µg/ml

- binder: "rabbit monoclonal anti-human Id3, clone #BCH-4/#3-3 (antibody, V domains shown, Rabbit IgG from a rabbit hybridoma; also called h Id3 MoAb 3-3) VH: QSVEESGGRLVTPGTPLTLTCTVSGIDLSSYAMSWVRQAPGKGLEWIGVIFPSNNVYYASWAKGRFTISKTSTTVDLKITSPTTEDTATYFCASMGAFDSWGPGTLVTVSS VL: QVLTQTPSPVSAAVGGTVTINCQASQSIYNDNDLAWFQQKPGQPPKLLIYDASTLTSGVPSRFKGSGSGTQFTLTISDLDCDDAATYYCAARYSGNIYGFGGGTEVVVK"
  A450: "0.048 A450"

Source of measurements: patent US20070178531A1
